biological target: Tyrosinase (Agaricus bisporus, UniProt O42713)
PROPERTY NAME: Ki (µM)

* COc1cc([C@H]2Oc3cc(O)cc(O)c3C(=O)[C@@H]2O)ccc1O | 73.4

* * *

Target: Tyrosinase (Agaricus bisporus)
Sequence (whole entry): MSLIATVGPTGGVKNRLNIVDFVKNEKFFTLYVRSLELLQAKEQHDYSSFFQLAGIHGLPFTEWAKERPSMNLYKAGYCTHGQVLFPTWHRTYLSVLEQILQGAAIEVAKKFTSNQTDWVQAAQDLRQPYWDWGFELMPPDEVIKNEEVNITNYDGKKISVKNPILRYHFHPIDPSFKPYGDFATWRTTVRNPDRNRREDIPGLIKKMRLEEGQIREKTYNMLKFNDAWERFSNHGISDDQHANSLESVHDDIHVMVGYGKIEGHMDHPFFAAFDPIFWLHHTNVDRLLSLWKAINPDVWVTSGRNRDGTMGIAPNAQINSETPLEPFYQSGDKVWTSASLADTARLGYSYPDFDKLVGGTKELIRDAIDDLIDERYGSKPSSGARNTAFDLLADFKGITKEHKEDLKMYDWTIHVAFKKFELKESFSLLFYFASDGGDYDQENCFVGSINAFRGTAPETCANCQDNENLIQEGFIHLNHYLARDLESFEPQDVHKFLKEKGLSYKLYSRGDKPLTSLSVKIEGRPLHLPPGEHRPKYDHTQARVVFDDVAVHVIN
Experiment: Binding affinity to mushroom tyrosinase assessed as Stern-Volmer quenching constant by fluorescence spectrophotometry
Listed compounds paired with reported KSV
PROPERTY NAME: KSV (×10⁴ L/mol)

* COc1cc([C@@H]2Oc3c(O)cc(-c4oc5cc(O)cc(O)c5c(=O)c4O)cc3[C@H]2CO)ccc1O | 0.0634
* COc1cc([C@@H]2Oc3ccc([C@H]4Oc5cc(O)cc(O)c5C(=O)[C@@H]4O)cc3O[C@H]2CO)ccc1O | 0.0882
* O=C1c2c(O)cc(O)cc2O[C@H](c2ccc(O)c(O)c2)[C@H]1O | 0.0492
* COc1cc([C@H]2Oc3c(O)cc([C@H]4Oc5cc(O)cc(O)c5C(=O)[C@@H]4O)cc3[C@@H]2CO)ccc1O | 0.109
* COc1cc([C@@H]2Oc3c(O)cc([C@H]4Oc5cc(O)cc(O)c5C(=O)[C@@H]4O)cc3[C@H]2CO)ccc1O | 0.192
* COc1cc([C@H]2Oc3cc(O)cc(O)c3C(=O)[C@@H]2O)ccc1O | 0.0222
* COc1cc([C@@H]2[C@H]3CO[C@@]4(O)C(=O)[C@@H]2C=C([C@H]2Oc5cc(O)cc(O)c5C(=O)[C@@H]2O)[C@@H]34)ccc1O | 0.193
* COc1cc([C@H]2Oc3ccc([C@H]4Oc5cc(O)cc(O)c5C(=O)[C@@H]4O)cc3O[C@@H]2CO)ccc1O | 0.267
* COc1cc(C2Oc3cc([C@H]4Oc5cc(O)cc(O)c5C(=O)[C@@H]4O)ccc3OC2CO)ccc1O (mixture of isomers) | 0.261
* O=C1c2c(O)cc(O)cc2O[C@H](c2ccc(O)cc2)[C@H]1O [DIHYDROKAEMPFEROL] | 0.0199
